Below: a set of entries, each annotated with reported Normalized Binding Signal, 1500 nM.
# TEST_SYSTEM: T1, recombinant human Tie2 extracellular domain (human, UniProt Q02763 23-748)
# T1 construct: whole entry named; also called Recombinant human Tie2 ECD; hu Tie2
# T1 sequence (Q02763 23-748 limits assumed): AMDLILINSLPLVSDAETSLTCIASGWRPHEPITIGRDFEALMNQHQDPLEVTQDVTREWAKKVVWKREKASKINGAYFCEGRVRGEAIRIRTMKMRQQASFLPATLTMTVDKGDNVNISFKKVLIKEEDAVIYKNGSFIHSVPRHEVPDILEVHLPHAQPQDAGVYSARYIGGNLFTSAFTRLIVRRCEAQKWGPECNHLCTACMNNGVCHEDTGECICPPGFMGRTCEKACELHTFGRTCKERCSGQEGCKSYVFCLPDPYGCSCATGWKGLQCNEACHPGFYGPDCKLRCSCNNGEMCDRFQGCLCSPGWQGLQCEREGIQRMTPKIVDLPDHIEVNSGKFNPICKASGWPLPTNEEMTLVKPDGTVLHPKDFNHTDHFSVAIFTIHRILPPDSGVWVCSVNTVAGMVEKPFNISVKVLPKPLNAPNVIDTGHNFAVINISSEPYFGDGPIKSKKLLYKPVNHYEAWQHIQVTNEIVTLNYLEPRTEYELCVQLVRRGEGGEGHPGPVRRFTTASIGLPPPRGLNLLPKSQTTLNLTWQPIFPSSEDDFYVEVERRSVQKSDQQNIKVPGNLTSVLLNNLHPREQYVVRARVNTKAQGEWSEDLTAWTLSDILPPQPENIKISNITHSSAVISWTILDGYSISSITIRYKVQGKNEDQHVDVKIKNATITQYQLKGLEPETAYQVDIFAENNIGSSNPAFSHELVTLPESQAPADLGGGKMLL
# PROTOCOL_SUMMARY: SPR, IgG captured, 37C

BINDER	Normalized Binding Signal, 1500 nM
Tie2.1.M100cI (antibody, IgG1, name in Kabat numbering, V domains shown, hIgG1) VH: EVQLVESGGGLVQPGGSLRLSCAASGFTFSNTDISWVRQAPGKGLEWVGRISPSDGNTYYADSVKGRFTISADTSKNTAYLQMNSLRAEDTAVYYCARRTRWASWAIDYWGQGTLVTVSS VL: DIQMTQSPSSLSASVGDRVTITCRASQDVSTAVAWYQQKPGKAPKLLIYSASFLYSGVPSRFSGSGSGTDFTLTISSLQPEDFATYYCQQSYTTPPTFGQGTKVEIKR	0.14

The record that follows has no Normalized Binding Signal, 1500 nM shown yet.
Assign Normalized Binding Signal, 1500 nM to the following record: Tie2.1.M100cV (antibody, IgG1, name in Kabat numbering, V domains shown, hIgG1) VH: EVQLVESGGGLVQPGGSLRLSCAASGFTFSNTDISWVRQAPGKGLEWVGRISPSDGNTYYADSVKGRFTISADTSKNTAYLQMNSLRAEDTAVYYCARRTRWASWAVDYWGQGTLVTVSS VL: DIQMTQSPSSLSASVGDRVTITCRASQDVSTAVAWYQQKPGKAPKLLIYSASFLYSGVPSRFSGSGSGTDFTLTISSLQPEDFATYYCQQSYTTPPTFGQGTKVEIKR
0.16
